Can you tell me IC50 for the items I'm about to list?
- assayed-target: N-acyl-phosphatidylethanolamine-hydrolyzing phospholipase D (Mus musculus)
- Sequence (Q8BH82 whole entry): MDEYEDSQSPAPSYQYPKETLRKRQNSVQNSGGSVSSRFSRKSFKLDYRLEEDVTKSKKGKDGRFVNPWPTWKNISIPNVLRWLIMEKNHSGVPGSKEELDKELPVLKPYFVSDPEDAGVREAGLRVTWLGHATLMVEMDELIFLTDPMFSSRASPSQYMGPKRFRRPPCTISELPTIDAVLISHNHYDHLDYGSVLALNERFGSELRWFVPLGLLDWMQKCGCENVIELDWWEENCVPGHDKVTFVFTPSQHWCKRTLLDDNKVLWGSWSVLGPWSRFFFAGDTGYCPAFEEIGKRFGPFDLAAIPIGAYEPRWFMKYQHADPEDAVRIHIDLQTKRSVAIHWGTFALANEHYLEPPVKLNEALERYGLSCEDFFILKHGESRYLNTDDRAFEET
- protocol-text: Inhibition of full length mouse NAPE-PLD expressed in HEK293T cell lysate using PED6 as substrate preincubated for 30 mins followed by substrate addition and measured at 2 mins interval for 1 hr by tecan-plate reader analysis
Answers are plain numbers, in µM.

CN(CCc1ccccc1)c1nc(C(=O)NCC2CC2)cc(N2CCOCC2)n1    3.31

Dear colleague, could you send me IC50 for each of the items below? Thanks.
1. CN(C)c1cc(C(=O)NCC2CC2)nc(N2CCC[C@@H](c3ccccc3)C2)n1
2. O=C(NCC1CC1)c1cc(N2CCOCC2)nc(N2CCC[C@@H](c3ccccc3)C2)n1

[0.389, 0.575]

Dear colleague, could you send me IC50 for each of the items below? Thanks.
1. O=C(NCC1CC1)c1cc(N2CC[C@H](O)C2)nc(N2CCC[C@H](c3ccccc3)C2)n1
2. O=C(NCC1CC1)c1cc(N2CC[C@@H](O)C2)nc(N2CCC[C@H](c3ccccc3)C2)n1

1. 1.82
2. 1.26
